system: MDA-MB-468 breast; assay: NCI tumour cell line growth inhibition, 48 h; in the data active = GI50 below about 0.43 µM; inactive = the rest
Pick from active, inactive when you respond.

Some solved entries appear below for comparison.
>>> assigned_category("CCC(=O)NC1=C(Cl)C(=O)C(NC(=O)CC)=C(Cl)C1=O")
"inactive"
>>> assigned_category("O=C(Nc1cccc([N+](=O)[O-])c1)c1cccc(C(=O)Nc2cccc([N+](=O)[O-])c2)c1")
"inactive"
>>> assigned_category("Cn1nc(C(F)(F)F)cc1-c1cc(Cl)c(OCc2ccc(Cl)cc2)c(-c2ccc(Cl)c(C(F)(F)F)c2)c1O")
"inactive"

Field: outcome | Entry: COc1ccc2c3ccnc(C(F)(F)F)c3n(CCCCN)c2c1
inactive

Next record, please: CC1=CC2(C)/C=C(C)/C=C\CC(O)/C=C3/C=CC(=C4C(=O)OC2(CC1C)C4=O)OC3 (configuration not stated)
inactive

Please answer likewise for O=C(N/N=C/c1ccc(Br)o1)c1[nH]c2ccc(Br)cc2c1-c1ccccc1
active

Item: CCN1CCN(C(=O)[C@]23CC[C@@H](C)[C@H](C)[C@@H]2C2=CC[C@@H]4[C@@]5(C)CCC(=O)C(C)(C)[C@@H]5CC[C@@]4(C)[C@]2(C)CC3)CC1
inactive

Try the molecule CCN1CCN(c2ccc(NC(=O)Nc3nc4ccc(-c5ccccc5OC)cc4s3)cc2)CC1
inactive

Next entry: Clc1cnc(Nc2ccc(OCCN3CCCC3)cc2)nc1NCc1ccco1
inactive

// same read-out, input: C[C@H]1[C@@H](CC(=O)N[C@@H](Cc2coc3ccccc23)B(O)O)O[C@@H]2OC3(C)CC[C@H]4[C@H](C)CC[C@@H]1[C@@]24O3
inactive

Can you handle CCCCCCCCN(CCCCCCCC)CC(O)c1cc(-c2ccccc2)nc2ccc(OC)cc12 (configuration not stated) next?
inactive

Try CN1CCN(Cc2ccc(NC(=O)c3cncc(C#Cc4ccc(N)nc4)c3)cc2C(F)(F)F)CC1 next.
inactive

Same for CC(C)(C)NCC(O)c1ccccc1Cl (configuration not stated)
inactive

* * *

Reported TGI values follow for various molecules
system: MDA-MB-468 breast; assay: NCI tumour cell line growth inhibition, 48 h

>>> endpoint_value("N#C/C(=C\\c1ccc[nH]1)c1cc(-c2ccc(Cl)cc2)nn1-c1ccccc1")
"2.23 µM"
>>> endpoint_value("COc1cc(OC)c(/C=C/C(=O)c2c(OC)cc(OC)cc2OC)c(OC)c1")
"4.55 µM"
>>> endpoint_value("CC(C)[C@@H](C(=O)O[C@@H]1/C=C/C(=O)O[C@@H](C)CCC/C=C/[C@@H]2C[C@H](O)C[C@H]21)N(C)C")
"6.18 µM"
>>> endpoint_value("O=C1/C=C/[C@@H](O)[C@@H]2C[C@@H](O)C[C@H]2/C=C/CCC[C@H](CCO)O1")
"0.0757 µM"
>>> endpoint_value("Cn1nc(C(F)(F)F)cc1-c1cc(Cl)c(OCc2ccc(Cl)cc2)c(-c2ccc(Cl)c(C(F)(F)F)c2)c1O")
"4.97 µM"
>>> endpoint_value("C=CCc1c(O)c(C(=O)/C=C/c2ccc(Cl)cc2)c(OC)c2ccoc12")
"5.84 µM"

Reported TGI, molecule Cc1nnc(N/N=C/c2ccc([N+](=O)[O-])o2)[nH]c1=O : ____
12.2 µM

Ok, now Nc1nc(-c2ccc3c(c2)/C(=C\c2cc(Br)c(O)c(Br)c2)C(=O)N3)cs1
> 22.8 µM

Follow-up entry: COc1ccc2c3ccnc(C(F)(F)F)c3n(CCCCN)c2c1
13.4 µM

* * *

Form field: TGI (one value per entry).
system: MDA-MB-468 breast; assay: NCI tumour cell line growth inhibition, 48 h
Report only the number, with the unit µM understood.

>>> endpoint_value("CN1CCN(Cc2ccc(NC(=O)c3cncc(C#Cc4ccc(N)nc4)c3)cc2C(F)(F)F)CC1")
4.3
>>> endpoint_value("CCC[CH2][Sn]1([CH2]CCC)[O]C(=O)c2cccc([N+](=O)[O-])c2C(=O)[O]1")
0.449
>>> endpoint_value("CCN1CCN(c2ccc(NC(=O)Nc3nc4ccc(-c5ccccc5OC)cc4s3)cc2)CC1")
4.03
>>> endpoint_value("Cc1cc(OCc2ccc(C(F)(F)F)cc2)c2c(c1)C(=O)C=C(NCCN1CCCC1)C2=O")
4.55

# next molecule below
What measured TGI goes with CCC(=O)NC1=C(Cl)C(=O)C(NC(=O)CC)=C(Cl)C1=O ?
3.66

* * *

tested on: MDA-MB-468 breast; experiment: NCI tumour cell line growth inhibition, 48 h
Reported GI50 is given for each of the following compounds.

As a guide, the following entries are already answered.
>>> endpoint_value("CC1Cc2c(Cl)ncnc2N(C)c2ccccc21 (centres undefined)")
"1.6 µM"
>>> endpoint_value("Cc1[nH]nc(C(F)(F)F)c1Cc1sc2c(c1C(=O)N1C[C@](C)(O)CO1)c(=O)n(C)c(=O)n2C(C)C")
"> 100 µM"
>>> endpoint_value("CCOC(=O)C1=C(Nc2ccc(OC)cc2)C(N)=NC1=N")
"0.474 µM"

Okay, next one:
Would you mind telling me what GI50 value was observed for CCOP(=O)(OCC)/C(=C/n1c(=S)[nH]c2ccccc21)C(=O)OC ?
> 100 µM
